This section presents sequences with their documented gcPBM binding intensity (ln) values.
- Tested on: PfAP2-EXP AP2 domain (GST-tagged)
- Protocol: gcPBM binding intensity (ln(normalized median fluorescence intensity)); higher = stronger DNA binding
The full ranking holds about 25,000 sequences; the median of “ln(normalized median fluorescence intensity)” is about 8.6, and the highest 2% start at about 10. This is one part of a sample in which the highest values are shown more often than they occur.
Value Kind: gcPBM binding intensity (ln)

| Biosequence | Experimental System | Value Kind | Quantitative Readout |
| --- | --- | --- | --- |
| ATAAAATCAAAATATACACACAAGGGGGAAAATCAA [CACACA_site2809] | PfAP2-EXP AP2 domain (GST-tagged) | gcPBM binding intensity (ln) | 8.96 |
| ATATTGAAATGTTAATAGAAATATATGGTTAAATTG [XGTACX_negctrl_site212] | PfAP2-EXP AP2 domain (GST-tagged) | gcPBM binding intensity (ln) | 8.34 |
| CCCCCCCACAGACACACACACATACATACCACATAT [CACACA_site2306] | PfAP2-EXP AP2 domain (GST-tagged) | gcPBM binding intensity (ln) | 10.3 |
| ACAAAAGGGGAATACACACACATATATAAATAAATA [CACACA_site7111] | PfAP2-EXP AP2 domain (GST-tagged) | gcPBM binding intensity (ln) | 8.73 |
| AAGATGGTAAAGAATTGTACGCGCATATATATATTT [XGTACX_site3904] | PfAP2-EXP AP2 domain (GST-tagged) | gcPBM binding intensity (ln) | 9.69 |
| ACAAAAGGGGAATACACACACATATATATATATATA [CACACA_site2215] | PfAP2-EXP AP2 domain (GST-tagged) | gcPBM binding intensity (ln) | 10.2 |
| ATATTTTTTTTCTACACACATACAAATATATATTAT [CACACA_site2359] | PfAP2-EXP AP2 domain (GST-tagged) | gcPBM binding intensity (ln) | 8.97 |
| AAGATATGAGGGAATACACACATATTTATATTTATA [CACACA_site6846] | PfAP2-EXP AP2 domain (GST-tagged) | gcPBM binding intensity (ln) | 8.26 |
| AGTATATATACACAAGGGGAATACATATACAAAATT [TGCATGCA_negctrl_site244] | PfAP2-EXP AP2 domain (GST-tagged) | gcPBM binding intensity (ln) | 8.89 |
